Cited source for all entries: patent US7018801

Target: T1, ICS (14 mer epitope that is part of human pro-IL-1beta) (human)
T1 chain: NEAYVHDGPVRSLN
Test: method not stated; 'measured in a different context' from the protease experiment
ASSAY READOUT: Kd (nM)
Just the number please, in nM, no unit attached.

stdin: Record request: Kd value, item KARKEAELAAATAEQ (modifications not checked) [LEPB]
stdout: 2000
